Exercise: for every item that follows, state its recorded pKd.
- STUDY_TARGET: T1, recombinant human sCD4 CF (manufactured by R&D Systems) (human, UniProt P01730 26-390, limits assumed)
- T1 construct: Immobilized on the Biacore sensor chip; also called recombinant CD4; CD4 antigen
- PROTOCOL_DETAILS: SPR, Biacore T-200, CD4 immobilized on chip, as in Example 2
Give bare numbers, as −log10 of the molar value.

| BINDER | pKd |
| --- | --- |
| anti-CD4-FLAG (VHH, Secreted from Pichia pastoris with the alpha-factor signal, which is cleaved during secretion; also called Anri-CD4-FLAG; anti-CD4 nanobody with no barcode) VHH: EVQLVESGGGSVQPGGSLTLSCGTSGRTFNVMGWFRQAPGKEREFVAAVRWSSTGIYYTQYADSVKSRFTISRDNAKNTVYLEMNSLKPEDTAVYYCAADTYNSNPARWDGYDFRGQGTQVTVSS | 7.59 |

Request: Given anti-CD4 with barcode 4-1 (VHH, secreted from Pichia pastoris) VHH: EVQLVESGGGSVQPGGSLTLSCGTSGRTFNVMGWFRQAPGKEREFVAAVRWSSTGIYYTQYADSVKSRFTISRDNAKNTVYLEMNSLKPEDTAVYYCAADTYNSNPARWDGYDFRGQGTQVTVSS , respond with its pKd.
Result: 7.68

This collection of values is drawn from patent US20220275417A1.
